Target: rat mGluR5 receptor (Rattus norvegicus)
Construct: expressed in transfected cells; host or cells: HEK-293
Sequence (P31424 21-1203): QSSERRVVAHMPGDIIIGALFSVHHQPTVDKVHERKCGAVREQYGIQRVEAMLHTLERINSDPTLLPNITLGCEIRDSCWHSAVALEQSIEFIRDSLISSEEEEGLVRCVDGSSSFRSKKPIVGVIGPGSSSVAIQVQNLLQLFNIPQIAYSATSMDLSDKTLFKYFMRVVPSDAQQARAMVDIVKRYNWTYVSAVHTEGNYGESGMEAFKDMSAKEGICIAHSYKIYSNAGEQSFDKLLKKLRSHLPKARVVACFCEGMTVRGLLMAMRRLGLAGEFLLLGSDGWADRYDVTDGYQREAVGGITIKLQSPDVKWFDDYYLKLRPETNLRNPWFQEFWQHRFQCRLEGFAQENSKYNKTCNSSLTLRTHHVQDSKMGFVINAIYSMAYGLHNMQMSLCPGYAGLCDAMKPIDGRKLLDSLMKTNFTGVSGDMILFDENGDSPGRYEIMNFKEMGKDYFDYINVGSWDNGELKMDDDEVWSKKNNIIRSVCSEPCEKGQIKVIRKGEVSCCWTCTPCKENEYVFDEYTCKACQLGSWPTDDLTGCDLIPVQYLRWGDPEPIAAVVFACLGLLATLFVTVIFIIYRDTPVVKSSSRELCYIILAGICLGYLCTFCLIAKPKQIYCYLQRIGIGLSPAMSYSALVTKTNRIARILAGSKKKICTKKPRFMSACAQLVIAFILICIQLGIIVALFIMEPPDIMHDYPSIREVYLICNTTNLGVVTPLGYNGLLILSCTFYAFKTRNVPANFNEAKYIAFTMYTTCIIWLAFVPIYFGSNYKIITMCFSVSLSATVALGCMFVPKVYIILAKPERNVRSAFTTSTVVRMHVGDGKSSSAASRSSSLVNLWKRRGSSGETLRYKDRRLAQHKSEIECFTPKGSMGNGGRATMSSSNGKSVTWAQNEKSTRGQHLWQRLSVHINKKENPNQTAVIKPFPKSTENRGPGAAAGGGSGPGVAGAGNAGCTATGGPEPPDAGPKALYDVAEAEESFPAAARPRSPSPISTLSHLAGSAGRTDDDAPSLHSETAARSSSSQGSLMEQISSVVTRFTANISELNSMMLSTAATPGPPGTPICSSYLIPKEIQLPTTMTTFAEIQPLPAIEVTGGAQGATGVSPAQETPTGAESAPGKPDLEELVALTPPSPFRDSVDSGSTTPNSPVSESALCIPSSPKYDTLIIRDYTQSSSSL
Test: [3H]-MPEP displacement binding assay, HEK-293 cell membranes expressing rat mGluR5
Conditions: Biological Activity, Table 2A; read-out: Median Ki
Could you please mark criterion met for values of Ki below 1000 nM and criterion not met for values at or above it?

Reference set (5 entries):
> print(dat)
                                   molecule                cat
1  COc1ccc(C(=O)N2CCN(c3ccncc3)CC2)cc1C#Cc1ccccc1 [Compound 145]  criterion not met
2  O=C(c1ccnc(C#Cc2ccccc2)c1)N1CCN(c2ncccn2)CC1 [Compound 120]  criterion not met
3  O=C(c1cccc(C#Cc2ccccn2)c1)N1CCN(c2nccc(-c3ccccc3)n2)CC1 [Compound 106]      criterion met
4  Cc1cc(C)nc(N2CCN(C(=O)c3cccc(C#Cc4ccccn4)c3)CC2)n1 [Compound 100]  criterion not met
5  O=C(c1ccnc(C#Cc2ccccc2)c1)N1CCN(c2ccccn2)CC1 [Compound 121]  criterion not met

[Q] Please indicate whether the reported Ki of O=C(c1cccc(C#Cc2ccccn2)c1)N1CCN(c2ncc(C(F)(F)F)cc2Cl)CC1 [Compound 149] is strictly below 1000 nM.
[A] criterion not met

[Q] Please indicate whether the reported Ki of O=C(c1cccc(C#Cc2ccccc2)c1)N1CCN(c2ccccc2)CC1 [Compound 76] is strictly below 1000 nM.
[A] criterion not met

[Q] Please indicate whether the reported Ki of COc1cccnc1N1CCN(C(=O)c2cccc(C#Cc3ccccn3)c2)CC1 [Compound 101] is strictly below 1000 nM.
[A] criterion not met

[Q] Please indicate whether the reported Ki of O=C(c1ccc(F)c(C#Cc2ccccc2)c1)N1CCN(c2ccccn2)CC1 [Compound 89] is strictly below 1000 nM.
[A] criterion met
